Ref: PubChem BioAssay

composite z-score for assorted compounds
# TARGET_SYSTEM: Follistatin-related protein 3 (Homo sapiens) (UniProt O95633)
# Sequence (O95633 whole entry, looked up): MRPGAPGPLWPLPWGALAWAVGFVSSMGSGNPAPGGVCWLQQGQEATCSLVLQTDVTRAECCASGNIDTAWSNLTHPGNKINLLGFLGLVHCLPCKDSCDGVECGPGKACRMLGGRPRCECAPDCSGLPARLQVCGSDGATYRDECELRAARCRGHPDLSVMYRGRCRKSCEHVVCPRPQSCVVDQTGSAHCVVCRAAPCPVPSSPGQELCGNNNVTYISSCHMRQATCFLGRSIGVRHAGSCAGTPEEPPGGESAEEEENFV
# EXPERIMENT: FSTL3 binders on small-molecule microarrays, primary screen, biochemical, small-molecule microarray, 635 nm fluorescence (AID 1105);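 further: score merges emission near 667 nm and signal to noise per printed spot across three slides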
# PROTOCOL_CONDITIONS: FSTL3 binding, higher = more signal
MEASUREMENT_KIND: composite z-score

[[record]]
compound = "CCc1cc2c(nc1CC)CCN(CCC(C)=NOC(C)CN1CCCc3nc(C)c(C)cc31)C2 (centres undefined)"
measurement_kind = "composite z-score"
value_measured = 1.32

[[record]]
compound = "COc1ccc(OC[C@H]2Cc3c(-c4ccccc4)nc4c(c3CO2)CN(CCOc2ccccc2)CC4)cc1"
measurement_kind = "composite z-score"
value_measured = 1.03

[[record]]
compound = "CCc1cc2c(nc1CC)CCN(CCC(C)=NOC[C@@H](O)[C@H]1O[C@@H]3OC(C)(C)O[C@@H]3[C@H]1O)C2"
measurement_kind = "composite z-score"
value_measured = 0.285

[[record]]
compound = "CCN1C(=O)[C@H]2[C@H]3[C@H](O)[C@H](O)CC(=NOCc4ccccc4)[C@H]3CC[C@H]2C1=O"
measurement_kind = "composite z-score"
value_measured = -0.257


---

# Tested on: Wnt5a (protein binding on small-molecule microarray)
# EXPERIMENT: Wnt5a binders on small-molecule microarray, primary screen, biophysical, 635/667 nm fluorescence (AID 1142);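 further: fluorescence read at 667 nm with signal to noise per printed feature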
# PROTOCOL_CONDITIONS: 635 nm fluorescence, higher = more signal
composite z-score for assorted molecules
MEASUREMENT_KIND: composite z-score

[[record]]
molecule = "COC(=O)[C@H]1COC(c2ccc(OCCCO)cc2)=N1"
target_system = "Wnt5a (protein binding on small-molecule microarray)"
value_measured = -0.0323

[[record]]
molecule = "NCCCCCNC(=O)[C@@H]1C[C@@H]2C(=O)N3CCC[C@H]3C(=O)N2[C@@H]1c1cccc(OCCO)c1"
target_system = "Wnt5a (protein binding on small-molecule microarray)"
value_measured = 0.369

[[record]]
molecule = "Cn1cccc1C(O)C1C=CC2C(=O)NC(=O)C2N1Nc1ccccn1 (stereo not given)"
target_system = "Wnt5a (protein binding on small-molecule microarray)"
value_measured = 0.0956

[[record]]
molecule = "COC(=O)C1=C(C)[C@@H](O)[C@@H](C)[C@H](c2c(OC)c(OC)c(C)c(OC)c2OC)O1"
target_system = "Wnt5a (protein binding on small-molecule microarray)"
value_measured = 0.0023

[[record]]
molecule = "C[C@H]1CC[C@@H](C(=O)O)N[C@@H]1c1ccc(C#CCN(C)C)cc1"
target_system = "Wnt5a (protein binding on small-molecule microarray)"
value_measured = 0.163


---

z-score for assorted compounds
# TARGET_SYSTEM: NADPH oxidase 4 (Homo sapiens) (UniProt Q9NPH5)
# Sequence (Q9NPH5 whole entry, looked up): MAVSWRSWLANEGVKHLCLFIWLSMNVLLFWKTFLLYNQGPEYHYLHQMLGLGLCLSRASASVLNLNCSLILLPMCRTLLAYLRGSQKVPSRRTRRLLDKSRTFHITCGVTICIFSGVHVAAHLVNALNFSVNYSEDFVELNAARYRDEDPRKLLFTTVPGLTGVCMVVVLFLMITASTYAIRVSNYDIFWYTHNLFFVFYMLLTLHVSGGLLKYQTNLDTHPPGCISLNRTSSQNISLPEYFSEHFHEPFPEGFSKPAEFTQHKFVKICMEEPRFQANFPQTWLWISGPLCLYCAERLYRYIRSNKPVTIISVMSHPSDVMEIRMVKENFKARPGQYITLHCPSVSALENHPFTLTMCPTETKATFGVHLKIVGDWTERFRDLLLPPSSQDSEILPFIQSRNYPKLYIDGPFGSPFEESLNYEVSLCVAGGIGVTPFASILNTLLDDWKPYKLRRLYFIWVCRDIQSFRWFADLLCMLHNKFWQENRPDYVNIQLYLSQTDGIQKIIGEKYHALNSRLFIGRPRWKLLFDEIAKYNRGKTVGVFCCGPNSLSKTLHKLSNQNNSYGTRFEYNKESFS
# EXPERIMENT: NOX4-dependent H2O2 signal modulators, primary screen, NOX inhibitor project, cell-based, HEK293-NOX4, tetracycline-induced, Amplex Red fluorescence (AID 1160)
# PROTOCOL_CONDITIONS: 45 min, higher = more signal, called active from +8 up or from −8 down
MEASUREMENT_KIND: z-score

[[record]]
compound = "O=C1[C@H]2[C@H]3[C@H](O)[C@H](O)CC(=NO[C@@H]4O[C@H](CO)[C@@H](O)[C@H](O)[C@H]4O)[C@H]3CC[C@H]2C(=O)N1C1CCCCC1"
target_system = "NADPH oxidase 4 (Homo sapiens) (UniProt Q9NPH5)"
value_measured = 1.15

[[record]]
compound = "CC(C)(C)N1C(=O)[C@H]2[C@H]3[C@H](O)[C@H](O)CC(=NO[C@@H]4O[C@H](CO)[C@@H](O)[C@H](O)[C@H]4O)[C@@H]3CC[C@H]2C1=O"
target_system = "NADPH oxidase 4 (Homo sapiens) (UniProt Q9NPH5)"
value_measured = -0.022

[[record]]
compound = "CCCNC(=O)OC[C@H]1O[C@H](CCON=C[C@@H](OC)[C@H](C)C=CCC(=O)OC)C=C[C@@H]1Oc1ccc(OC)cc1"
target_system = "NADPH oxidase 4 (Homo sapiens) (UniProt Q9NPH5)"
value_measured = 0.00725

[[record]]
compound = "Cc1ccc(S[C@]2(C(=O)O)CC(=O)N(Cc3ccccc3)[C@@H]2c2ccc(CO)cc2I)cc1"
target_system = "NADPH oxidase 4 (Homo sapiens) (UniProt Q9NPH5)"
value_measured = -2.26

[[record]]
compound = "CCc1cccc(NC(=O)O[C@H]2[C@H](OC(=O)Nc3ccc4c(c3)OCO4)[C@@H](OC(=O)Nc3ccc4c(c3)OCO4)[C@@H](OC)O[C@@H]2CO)c1"
target_system = "NADPH oxidase 4 (Homo sapiens) (UniProt Q9NPH5)"
value_measured = -0.812

[[record]]
compound = "CO[C@@H]1COC(=O)CC=C[C@@H](C)[C@H](OC)COC(=O)[C@H](COCc2ccccc2)NC(=O)CC=C[C@H]1C"
target_system = "NADPH oxidase 4 (Homo sapiens) (UniProt Q9NPH5)"
value_measured = 0.0385

[[record]]
compound = "CO[C@H]1COC(=O)CC=C[C@H](C)[C@@H](NS(=O)(=O)c2ccc(C)cc2)COC(=O)CC=C[C@@H]1C"
target_system = "NADPH oxidase 4 (Homo sapiens) (UniProt Q9NPH5)"
value_measured = 0.256

[[record]]
compound = "COc1ccc(O[C@H]2C=C[C@@H](c3ccccc3)O[C@@H]2CON=C[C@@H](C)[C@H](OCc2ccccc2)C(C)C)cc1"
target_system = "NADPH oxidase 4 (Homo sapiens) (UniProt Q9NPH5)"
value_measured = 0.877

[[record]]
compound = "Cn1cccc1C(O)C1C=CC2C(=O)NC(=O)C2N1Nc1ccccn1 (stereo not given)"
target_system = "NADPH oxidase 4 (Homo sapiens) (UniProt Q9NPH5)"
value_measured = -4.94

[[record]]
compound = "COc1ccc(COC(=O)NN=C2C[C@@H](O)[C@@H](O)[C@@H]3[C@@H]4C(=O)N(c5ccc(F)cc5F)C(=O)[C@@H]4CC[C@@H]23)cc1"
target_system = "NADPH oxidase 4 (Homo sapiens) (UniProt Q9NPH5)"
value_measured = -1.98

[[record]]
compound = "CC(C)[C@H](NC(=O)OC(C)(C)C)[C@@H](O)CC(=O)OC(C)(C)C"
target_system = "NADPH oxidase 4 (Homo sapiens) (UniProt Q9NPH5)"
value_measured = -1.02

[[record]]
compound = "CCCNC(=O)[C@@H]1c2ccccc2C(=O)N(Cc2ccccc2Cl)[C@H]1c1ccc(CO)cc1"
target_system = "NADPH oxidase 4 (Homo sapiens) (UniProt Q9NPH5)"
value_measured = 0.601

[[record]]
compound = "O=C1[C@H]2[C@H]3[C@H](O)[C@H](O)CC(=NOCc4ccccc4)[C@H]3CC[C@H]2C(=O)N1C[C@@H]1CCCO1"
target_system = "NADPH oxidase 4 (Homo sapiens) (UniProt Q9NPH5)"
value_measured = 0.511

[[record]]
compound = "CC1CC/C=C\\[C@H]2OC34C=CCN(Cn5nnc6ccccc65)C(=O)[C@H]3N(CCO)C(=O)[C@@H]4C2C(=O)O1 (stereo not given in full)"
target_system = "NADPH oxidase 4 (Homo sapiens) (UniProt Q9NPH5)"
value_measured = 0.285

[[record]]
compound = "C[C@@H]1C=CCC(=O)OC[C@H](C)C(=O)N[C@@H](C)C(=O)OC1"
target_system = "NADPH oxidase 4 (Homo sapiens) (UniProt Q9NPH5)"
value_measured = 0.527

